This section presents compounds with their documented Max. Resp. values.
- studySystem: PKM2 (Homo sapiens)
- Sequence (P14618 whole entry): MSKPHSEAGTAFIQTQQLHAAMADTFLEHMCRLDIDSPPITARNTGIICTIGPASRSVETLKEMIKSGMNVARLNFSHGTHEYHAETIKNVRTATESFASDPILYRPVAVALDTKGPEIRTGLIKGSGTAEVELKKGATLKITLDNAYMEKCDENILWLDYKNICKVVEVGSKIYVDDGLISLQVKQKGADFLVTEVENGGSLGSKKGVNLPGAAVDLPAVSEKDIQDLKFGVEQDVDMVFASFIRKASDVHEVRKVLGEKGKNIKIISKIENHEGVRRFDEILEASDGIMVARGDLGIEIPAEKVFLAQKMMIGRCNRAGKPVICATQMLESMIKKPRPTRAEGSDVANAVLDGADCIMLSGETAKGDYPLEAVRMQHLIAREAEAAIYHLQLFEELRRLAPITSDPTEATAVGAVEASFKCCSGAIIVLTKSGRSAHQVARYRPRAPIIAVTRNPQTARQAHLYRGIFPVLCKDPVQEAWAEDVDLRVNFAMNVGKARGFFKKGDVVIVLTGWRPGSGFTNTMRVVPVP
- assayOverview: PKM2 Biochemical Assay
- conditionNotes: % maximum response in a biochemical assay as compared with Fructose 1,6-bisphosphate
observationType: Max. Resp. (%)

# moleculeSmiles, observationType, unitText, assayResult
measured = [
    ("CCN(CC)CCN(Cc1ccccc1Cl)C(=O)c1cc(Br)n[nH]1", "Max. Resp.", "%", 100),
    ("CCN1CCC(CCN(Cc2c(Cl)cccc2Cl)C(=O)c2cc(C(F)(F)F)n[nH]2)CC1", "Max. Resp.", "%", 71),
    ("CCN1CCN(CCN(Cc2ccccc2F)C(=O)c2cc(C(F)(F)F)n[nH]2)CC1", "Max. Resp.", "%", 115),
    ("CCN(CC)CCN(Cc1cc(Cl)ccc1Cl)C(=O)c1cc(C(F)(F)F)n[nH]1", "Max. Resp.", "%", 100),
]

====

- studySystem: UniProt P14618
- assayOverview: PKM2 Biochemical Assay
- conditionNotes: % maximum response in a biochemical assay as compared with Fructose 1,6-bisphosphate

# compound, unitText, Max. Resp.
measured = [
    ("O=C(c1cc(C(F)(F)F)n[nH]1)N(CCN1CCS(=O)(=O)CC1)Cc1c(F)cccc1F", "%", 94),
    ("CCN(CC)CCN(Cc1ccccc1C(C)C)C(=O)c1cc(C(F)(F)F)n[nH]1", "%", 85),
    ("O=C(c1cc(C(F)(F)F)n[nH]1)N(CCN1CCCC(O)C1)Cc1ccccc1Cl (stereo not drawn)", "%", 100),
]
